Test system: HCC 2998
Protocol: NCI tumour cell line growth inhibition, 48 h
Activity calls are given as the source filed them. No stated cut-off is given here; in the data, active = GI50 up to about 1.1 µM and inactive = higher.
Outcome measure: GI50

// worked examples, GI50 included
Compound	Result
O=C(CN1CCOCC1)Nc1nc(-c2ccc(Cl)cc2)cs1	26.8 µM (inactive)
c1ccc(NC2(c3nnnn3C3CCCCC3)CCNCC2)cc1	11.7 µM (inactive)
O=C1NC(=S)N(c2cccc3ccccc23)C(=O)/C1=C/c1c[nH]c2ccccc12	1.87 µM (inactive)
CCCCCCCCC(=O)NCCN(CCN)C(=O)CCCCCCCC	6.14 µM (inactive)
CCOC(=O)c1c(-c2ccccc2)nc2c(OC)nccn12	> 100 µM (inactive)
CNC1=C(C)C(=O)C(C)=C(C(C)(C)CC(=O)n2cc(F)c(=O)[nH]c2=O)C1=O	1.16 µM (inactive)
Nc1ccc2c(c1)NC(=O)[C@@H]1CCCN1C2=O	> 100 µM (inactive)
Cc1ccc(S(=O)(=O)OC2C(O)C(O)OC2C(c2cc(O)c3c(c2O)C(=O)c2ccccc2C3=O)c2cc(O)c3c(c2O)C(=O)c2ccccc2C3=O)cc1 (centres undefined)	4.09 µM (inactive)

Request: Identify the reported GI50 for the following entry. O=C(CCCn1ccnc1[N+](=O)[O-])NCCn1cnc([N+](=O)[O-])c1
Result: > 100 µM (inactive)

Request: Answer with the recorded GI50 for the compound listed here: Cc1c2cc[n+](C)cc2c(C)c2c1[nH]c1ccc(Oc3ccccc3)cc12
Result: 3.18 µM (inactive)

Request: Respond only with GI50 recorded for CC(C)(C)OC(=O)NCC(=O)OCc1ccccc1
Result: > 100 µM (inactive)

Request: Name the recorded GI50 of the compound listed here: O=c1[nH]n2c(=O)cc[nH]c2c1-c1nnns1
Result: > 100 µM (inactive)

Request: Look up and report measured GI50 for this entry: CC(C)N(C(=O)C12C3C4C5C3C1(C(=O)N(C(C)C)C(C)C)C5(C#N)C42)C(C)C (centres undefined)
Result: > 100 µM (inactive)

Request: Please indicate GI50 recorded for O=C1NC(N2CCCC(CO)C2)=N/C1=C\c1ccc(Cl)cc1 (centres undefined)
Result: 35.9 µM (inactive)

====

Test system: SK-OV-3
Protocol: NCI tumour cell line growth inhibition, 48 h
Calls of active or inactive are those of the source. Cut-off read from the data, not from the text of the source: active = GI50 up to about 1.1 µM and inactive = higher.
Listed next: entries and their corresponding GI50.

In [3]: df
Out[3]:
                                   molecule  outcome_measure               result
0  COc1ccc2c(c1OCC(=O)O)C(=O)C(CCC(=O)O)CC2 (stereo unspecified)             GI50  > 100 µM (inactive)

Request: Provide one value: measured GI50 of Nc1ncc2c(n1)-c1ccccc1OC2N1CCCC1 (stereo unspecified)
Result: > 100 µM (inactive)

Request: Entry c1ccc(NC2(c3nnnn3C3CCCCC3)CCNCC2)cc1 needs its GI50 filled in; supply it.
Result: 26 µM (inactive)

Request: Give recorded GI50. O=C(O)c1ccc(NNc2cc(=O)[nH]c(=O)[nH]2)cc1
Result: > 100 µM (inactive)

Request: Please give measured GI50 of the following entry: COP(=O)(C(/C=C/c1ccccc1)OC(C)=O)[C@@H]1CCCC[C@H]1N(CC(C)(C)C)C(C)=O (stereo partly specified)
Result: 23.1 µM (inactive)

Request: Look up and report measured GI50 for this entry: COC(=O)Nc1nc2cc(NS(=O)(=O)c3ccc(Cl)cc3)ccc2[nH]1
Result: 12.2 µM (inactive)

Request: Supply recorded GI50 for c1ccc(C[n+]2cccc(-c3cc4ccccc4[nH]3)c2)cc1 here.
Result: > 100 µM (inactive)

Request: Given the molecule CCCCCCCCCCCCCCCCCCNc1ccn(C2OC(COP(=O)(O)OCC3OC(n4cc(F)c(=O)[nH]c4=O)CC3O)C(O)C2O)c(=O)n1 (stereo unspecified) , write its reported GI50.
Result: 27.5 µM (inactive)
